The measurements presented in this section are drawn from patent US5705687A.

- Assay: Acute toxicity in mice (Litchfield-Wilcockson)
- Type: in vivo, white crossbred mice
- Measurement parameters: mouse, in vivo, ip, earlier experiments, identical conditions, read-out: DL50 (acute toxicity)
Measured metric: LD50 (mg/kg)
Write it as a number; the unit mg/kg goes unstated.

Challenge: Please give the measured LD50 for this molecule: CC(C)(CO)[C@@H](O)C(=O)NCCCC(=O)O [pantogam, reference compound]
Response given: 2250

---

- Assay: Acute toxicity in mice (Litchfield-Wilcockson)
- Type: in vivo, white crossbred mice
- Measurement parameters: mouse, in vivo, intravenous, read-out: DL50 (the source's name)
For each entry below, report its LD50 value.
Your reply should be a number followed by the unit it is expressed in.

Challenge: Which LD50 reading was recorded for the compound CC(C)(CO)[C@@H](O)C(=O)NCCCC(=O)O [pantogam, reference compound] ?
Response given: 1080 mg/kg

Challenge: # repeat for CC(C)(CO)C(=O)C(=O)NCCCC(=O)O
Response given: 1040 mg/kg
